- targetOrTestSystem: T1, biotin-labelled EZH2 protein (UniProt Q15910 1-746, limits assumed, biotin label (EZ-link NHS-PEO4-Biotinylation kit))
- T1 construct: Probe in solution (1 ug/ml) on the KDM2B peptide microarray; also called NHS-PEO4-Biotinylation-labelled EZH2 protein; recombinant protein
- T1 sequence (Q15910 whole entry): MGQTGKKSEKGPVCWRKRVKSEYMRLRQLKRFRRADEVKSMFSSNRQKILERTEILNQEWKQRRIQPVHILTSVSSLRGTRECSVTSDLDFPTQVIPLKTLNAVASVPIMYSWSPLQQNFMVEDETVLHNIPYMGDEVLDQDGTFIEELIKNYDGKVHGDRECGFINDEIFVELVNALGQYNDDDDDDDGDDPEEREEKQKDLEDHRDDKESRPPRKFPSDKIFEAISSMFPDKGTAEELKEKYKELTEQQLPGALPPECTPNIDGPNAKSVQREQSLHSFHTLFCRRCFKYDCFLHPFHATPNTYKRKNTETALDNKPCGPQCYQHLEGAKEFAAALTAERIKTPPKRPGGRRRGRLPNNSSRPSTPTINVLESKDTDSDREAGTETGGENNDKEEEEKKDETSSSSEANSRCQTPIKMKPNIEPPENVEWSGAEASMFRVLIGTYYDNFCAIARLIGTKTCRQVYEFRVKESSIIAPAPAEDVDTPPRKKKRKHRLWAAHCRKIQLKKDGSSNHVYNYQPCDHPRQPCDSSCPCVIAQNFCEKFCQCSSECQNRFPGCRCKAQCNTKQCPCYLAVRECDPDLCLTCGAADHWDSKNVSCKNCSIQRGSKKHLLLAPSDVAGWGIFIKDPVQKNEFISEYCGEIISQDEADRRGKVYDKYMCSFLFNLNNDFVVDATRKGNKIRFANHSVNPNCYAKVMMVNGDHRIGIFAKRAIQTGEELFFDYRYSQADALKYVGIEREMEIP
- experimentSummary: KDM2B peptide array probed with biotin-EZH2 1 ug/ml, SA-HRP/ECL;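 note: 100% is the highest background-corrected spot optical density on the membrane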;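 note: Background-corrected optical density of each spot on the membrane, given as percent of the brightest spot (100%), color developed for 5 minutes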
Reported Intensity (%) values for a set of binders
Response body: numeric value in %, unit text excluded.

Consider the reported Intensity (%) for these binders:
>  <binder>
HPGCLKIKESEGVVN [peptide 140]

>  <readoutType>
Intensity (%)

>  <endpointResult>
0

$$$$
>  <binder>
KGKLGPASAVKLAAN [peptide 118]

>  <readoutType>
Intensity (%)

>  <endpointResult>
0

$$$$
>  <binder>
QLGPSLRSPPRVISR [peptide 203]

>  <readoutType>
Intensity (%)

>  <endpointResult>
0

$$$$

Q: Name the recorded Intensity (%) for WTHLTEFELKGLKAL [peptide 102] .
Ans: 0

Q: Name the recorded Intensity (%) for IDAPRKPSIDGFSSD [peptide 79] .
Ans: 1.13
